The reader will find reported GI50 values listed item by item below.
Test system: ACHN
Test: NCI tumour cell line growth inhibition, 48 h
The source made the active and inactive calls. No stated cut-off is given here; in the data, active = GI50 up to about 1.1 µM and inactive = higher.

Known results for compounds:
- COC1C=COC2(C)Oc3c(C)c(O)c4c(c3C2=O)/C(=N/C2CCC(O)OC2C)C=C(NC(=O)/C(C)=C\C(=O)C2CC2C(O)C(C)C(O)C(C)C(OC(C)=O)C1C)C4=O (stereo not given): 3.13 µM (inactive)
- Clc1ccc(-c2cc(-c3cc(-c4ccc(Cl)cc4)[nH]n3)[nH]n2)cc1: > 100 µM (inactive)

Looking for the measured GI50 of Cc1c(-c2ccccc2)n(C)c2cn[nH]c(=O)c12 , can you help? 44.3 µM (inactive)

Dear colleague, I am looking for the recorded GI50 of the following compound: Cc1ccnc(NC(=S)Nc2ccc([N+](=O)[O-])cc2)c1 > 100 µM (inactive)

Dear colleague, I am looking for the recorded GI50 of the following compound: c1n[nH]cc1C12C3C4C5C3C1C5C42 (stereo not given) > 100 µM (inactive)

Suppose we examine the compound CCOC(=O)c1sc2c(c1OC(=O)c1cc(OC)c(OC)c(OC)c1)c(=O)n(-c1ccccc1)c(=S)n2-c1ccccc1 ; what GI50 value has been reported? > 100 µM (inactive)

Would you mind telling me what GI50 value was observed for CN(C)Nc1cc(=O)[nH]c(=O)[nH]1 ? > 100 µM (inactive)

The reported numbers originate from ChEMBL document CHEMBL1201862.
